- Condition Details: in acetone, 303.15 K
Observed Property: solubility (mole fraction)

Chem Smiles | Test Value
CCOC(=O)[C@H](CCc1ccccc1)N[C@@H](C)C(=O)N1CCC[C@H]1C(=O)O.O=C(O)/C=C\C(=O)O | 0.0038
CCOC(=O)[C@H](CCc1ccccc1)N[C@@H](C)C(=O)O | 0.007

====

- Condition Details: in isopropanol, 283.15 K

Chem Smiles | solubility (mole fraction)
CCOC(=O)[C@H](CCc1ccccc1)N[C@@H](C)C(=O)N1CCC[C@H]1C(=O)O.O=C(O)/C=C\C(=O)O | 0.000242
CCOC(=O)[C@H](CCc1ccccc1)N[C@@H](C)C(=O)O | 0.0012

====

- Condition Details: in ethanol, 303.15 K

Chem Smiles | solubility (mole fraction)
CCOC(=O)[C@H](CCc1ccccc1)N[C@@H](C)C(=O)N1CCC[C@H]1C(=O)O.O=C(O)/C=C\C(=O)O | 0.00292
CCOC(=O)[C@H](CCc1ccccc1)N[C@@H](C)C(=O)O | 0.00396

====

# solubility (mole fraction) listing for each entry below
- Condition Details: in ethanol, 293.15 K

Chem Smiles | solubility (mole fraction)
CCOC(=O)[C@H](CCc1ccccc1)N[C@@H](C)C(=O)O | 0.00334
CCOC(=O)[C@H](CCc1ccccc1)N[C@@H](C)C(=O)N1CCC[C@H]1C(=O)O.O=C(O)/C=C\C(=O)O | 0.00177

====

- Condition Details: in isopropanol, 273.15 K

Chem Smiles | solubility (mole fraction)
CCOC(=O)[C@H](CCc1ccccc1)N[C@@H](C)C(=O)N1CCC[C@H]1C(=O)O.O=C(O)/C=C\C(=O)O | 0.000144
CCOC(=O)[C@H](CCc1ccccc1)N[C@@H](C)C(=O)O | 0.000921

====

- Condition Details: in acetonitrile, 303.15 K
# solubility (mole fraction) listing for each entry below

Chem Smiles | solubility (mole fraction)
CCOC(=O)[C@H](CCc1ccccc1)N[C@@H](C)C(=O)O | 0.00129
CCOC(=O)[C@H](CCc1ccccc1)N[C@@H](C)C(=O)N1CCC[C@H]1C(=O)O.O=C(O)/C=C\C(=O)O | 0.00153

====

- Condition Details: in acetone, 293.15 K

Chem Smiles | solubility (mole fraction)
CCOC(=O)[C@H](CCc1ccccc1)N[C@@H](C)C(=O)N1CCC[C@H]1C(=O)O.O=C(O)/C=C\C(=O)O | 0.00243
CCOC(=O)[C@H](CCc1ccccc1)N[C@@H](C)C(=O)O | 0.00568

====

- Condition Details: in n-octanol, 303.15 K

Chem Smiles | solubility (mole fraction)
CCOC(=O)[C@H](CCc1ccccc1)N[C@@H](C)C(=O)N1CCC[C@H]1C(=O)O.O=C(O)/C=C\C(=O)O | 0.00131
CCOC(=O)[C@H](CCc1ccccc1)N[C@@H](C)C(=O)O | 0.0031

====

- Condition Details: in ethanol, 313.15 K
# solubility (mole fraction) listing for each entry below
Observed Property: solubility (mole fraction)

Chem Smiles | Test Value
CCOC(=O)[C@H](CCc1ccccc1)N[C@@H](C)C(=O)O | 0.00489
CCOC(=O)[C@H](CCc1ccccc1)N[C@@H](C)C(=O)N1CCC[C@H]1C(=O)O.O=C(O)/C=C\C(=O)O | 0.00449
